Target: D(1A) dopamine receptor (Homo sapiens) (UniProt P21728)
Sequence (P21728 whole entry, looked up): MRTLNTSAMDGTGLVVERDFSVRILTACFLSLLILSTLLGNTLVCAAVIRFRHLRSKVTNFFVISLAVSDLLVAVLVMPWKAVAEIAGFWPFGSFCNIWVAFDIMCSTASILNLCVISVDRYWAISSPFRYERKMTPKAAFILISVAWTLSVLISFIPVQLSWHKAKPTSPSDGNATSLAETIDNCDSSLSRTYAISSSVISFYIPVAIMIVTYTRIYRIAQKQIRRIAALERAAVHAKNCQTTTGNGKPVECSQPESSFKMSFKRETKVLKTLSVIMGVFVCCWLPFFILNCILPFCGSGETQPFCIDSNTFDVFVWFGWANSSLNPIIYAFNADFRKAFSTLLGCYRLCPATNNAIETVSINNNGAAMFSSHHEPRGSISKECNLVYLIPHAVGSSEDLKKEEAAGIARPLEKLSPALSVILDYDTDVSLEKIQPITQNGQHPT
Experiment: Antagonist of Human D 1 Dopamine Receptor: qHTS
Details: HEK293 TREx D1 cells, calcium flux, dopamine EC80; at 10 µM
Description: Dopamine receptors (DARs) are involved in the etiology and/or therapy of a number of neuropsychiatric and endocrine disorders. […] Freshly passaged cells are plated in 1536 well black, clear bottom plates at a density of 4000 cells/well in 3 ul of complete media containing 1x tetracycline inducer. […] Agonist read: A 10 cycle (1 second/cycle) baseline measurement is taken and then the FDSS online 1536 pintool delivers 23 nl of compound library (as well as dopamine controls) to the plate. […]
The campaign covered roughly 360,000 compounds. About 11,000 (3.1%) were called active. Rule as the data show it: active = activity change below about -30%; inactive = the rest. The sample holds actives, similar compounds and a random draw of the others, so the mix is not that of the screen.
Parameter call: string, one of TRUE (active), FALSE (inactive)

# fetch the recorded call for COCCCn1c(Cc2csc(Nc3cccc(Cl)c3)n2)nnc1SCC(=O)OC1CCCCC1 here
FALSE

# fetch the recorded call for O=C(Cc1csc(Nc2nc(=S)[nH]c3ccccc23)n1)NCCCN1CCN(c2cccc(Cl)c2)CC1 here
TRUE

# fetch the recorded call for CCc1ccc(CNC(=O)c2cc3cc4ccc(OC)cc4nc3o2)cc1 here
FALSE

# fetch the recorded call for COc1ccc(C2C(=O)N(C3CCCCCC3)CC(=O)N2CCc2ccc(Cl)cc2)cc1OC (stereo unspecified) here
FALSE

# fetch the recorded call for CC1=NN(C(=O)CCCc2ccccc2)C(O)(C(F)(F)F)C1 (stereo unspecified) here
TRUE

# fetch the recorded call for Cc1ccc(NS(=O)(=O)c2ccc3c(c2)n(C)c(=O)c(=O)n3C)c(C)c1 here
FALSE
